Data origin, for the record: patent US20210015858A1

Property: pKd; scope: individual binders
study.target: T1, recombinant His-tagged human TIGIT-ECD protein (human, UniProt Q495A1 22-141)
T1 construct: extracellular domain; The ELISA text only says His-tagged human TIGIT; also called His-tagged TIGIT; human TIGIT protein; not shown: His tag
T1 sequence (looked up): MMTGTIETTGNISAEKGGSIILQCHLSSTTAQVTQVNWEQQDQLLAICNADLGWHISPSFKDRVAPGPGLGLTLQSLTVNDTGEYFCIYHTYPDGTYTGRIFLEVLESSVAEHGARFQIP
protocol.notes: SPR (Biacore T200), antibody captured, His-tagged TIGIT-ECD injected
In plain terms, pKd is the concentration in mol/L turned into minus its base-10 logarithm.

Sample 167F7 (antibody, human IgG1, V domains shown, Mouse hybridoma clone) VH: EFQLQQSGPELVKPGASVKISCRASGYSFTAYSMNWVQQTNGKSLEWIGVINPKFGTINYNQKFKDKATLTVDHSSSAAYMQLNSLTSEDSAVYFCARNGNFAWYFDVWGTGTTVTVSS VL: DIQMTQSPASLSASVGETVTITCRASESIFSYLAWYQQKQGKSPQLLAYNAETLAEGVPSRFSGSGSGTQFSLKINSLQSEDFGIYYCQHHFGVPWTFGGGTKLEIK ; pKd observed: 10.62

Sample 350D10 (antibody, human IgG1, V domains shown, Mouse hybridoma clone; also called 350D10-chimeric) VH: EVKLVESGGALVQPGGSLKLSCAASGFTFSDYYMYWVRQTPEKRLEWVASITKGGGSTYYPDTLKGRFTISRDNAKNTLYLQMSRLKSEDTDMYYCARQSSYDFVMDYWGQGTSVTVSS VL: DIVMTQSHKFMSTSVGDRVTITCKASQDVDTAVAWYQQKPGQSPKLLIYWASARHTGVPDRFTGSGSGTDFTLTISNVQSEDLADYFCQQYSNYPLTFGVGTKLELK ; pKd observed: 10.09

Sample 90D9 (antibody, V domains shown, Mouse hybridoma clone; also called 90D9-chimeric) VH: EVQLQQSGPELVKPGASVKISCKTSGYTFTENTMHWVKQSHGKSLEWIGGINPNQGGNRNNQKFKGKATLTVDKSSSTAYMELRSLTSEDSAVYYCARSGLRDYAMDYWGQGTSVTVSS VL: DIVMTQSHKFMSTSVGDRVSITCKASQHVSTAVVWYQQKPGQSPKLLIYSPSYRYTGVPDRFTGSGSGTDFTFTISSVQAEDLAVYYCQQHYSTPWTFGGGTKLEIK ; pKd observed: 9.60

Sample 222H4 (antibody, human IgG1, V domains shown, Mouse hybridoma clone) VH: EVQLQQSGPELVKPGASVKISCKTSGYTFSDYTLHWVKQSHGKNLEWIGGFNPNNGGTNYNQKFKVKASLTIDKSSNTVYMELRSLSSEDSAVYYCARNWAFDYWGQGTTLTVSS VL: DIVMTQSHKIMSTSLGDRVNITCKASQHVSTAVAWYQQRPGQSPRLLIYSASYRHTGVPDRFTGSGSGTDITFTISSVQTEDLAVYYCQQYYTTPWTFGGGTKLEIK ; pKd observed: 9.62
